Field Ki: reported value for 5-hydroxytryptamine receptor 2A (Rattus norvegicus); entries drawn from several documents.
Measurement name: Ki (nM)

Below are worked cases with known answers.
{"Compound": "O=C(NCCCN1CCN(c2cccc(Cl)c2)CC1)c1ccccn1", "System name": "5-hydroxytryptamine receptor 2A (Rattus norvegicus)", "Unit abbrev": "nM", "Ki": 80.7}
{"Compound": "COc1ccc(OC(CCC(=O)C2CCN(c3ccc(F)cc3)CC2)c2ccccc2)cc1 (stereo not drawn)", "System name": "5-hydroxytryptamine receptor 2A (Rattus norvegicus)", "Unit abbrev": "nM", "Ki": 53.8}
{"Compound": "COc1ccc(OC(CCN2CCN(c3nsc4ccccc34)CC2)c2ccccc2)cc1 (stereo not drawn)", "System name": "5-hydroxytryptamine receptor 2A (Rattus norvegicus)", "Unit abbrev": "nM", "Ki": 10.2}
{"Compound": "c1ccc(Cn2c3c(c4ccccc42)CN(CCCOc2ccccc2)CC3)cc1", "System name": "5-hydroxytryptamine receptor 2A (Rattus norvegicus)", "Unit abbrev": "nM", "Ki": 65}
{"Compound": "O=C1NC2(CCc3ccccc32)C(=O)N1CCCN1CCN(c2ccccc2)CC1 (racemic)", "System name": "5-hydroxytryptamine receptor 2A (Rattus norvegicus)", "Unit abbrev": "nM", "Ki": 30}

[1] O=S(=O)(NCCCCN1CCc2sccc2C1)c1cnc2ccccc2c1
[2] O=S(=O)(NCCCCN1CCN(c2cccc(Cl)c2)CC1)c1ccc2ncccc2c1
[3] O=C(/C=C/c1ccccc1)N1CCC(CN2CCC(c3noc4cc(F)ccc34)CC2)CC1
[4] c1ccc(C2Oc3ccccc3OC2COCCCN2CCC(c3nc4ccccc4o3)CC2)cc1 (stereo not drawn)
[5] O=C(CCN1CCN(c2ccc(Cl)cc2)CC1)c1cc2c3c(c1)CCC(=O)N3CCC2
Task field, ranking: reported Ki, descending order. Record the ranking as a list of labels in the requested order.
3, 1, 5, 2, 4

[I] O=c1oc2cc(OCCCCN3CCN(c4ccccn4)CC3)ccc2c2c1CCC2
[II] Cn1ccc2c3c(ccc21)N(C(=O)Nc1cccnc1)CC3
Exercise: compare I and II ; which one has the greater Ki? // caller expects the label of the chosen entry
II

====

Collected set of pKi measured with UniProtKB P14842 across studies.
pKi: −log10 of the molar value.
Measurement name: pKi

Reference set, count: 5
{"Compound": "O=C(NC1CCN(Cc2ccccc2Cl)CC1)c1ccc2ccccc2c1", "pKi": 6.88}
{"Compound": "CN1CCN(c2nc(-c3ccccc3)cc(-c3ccoc3)n2)CC1", "pKi": 8.05}
{"Compound": "COc1ccccc1N1CCN(CCCN2C(=O)NC(C)(c3ccccc3)C2=O)CC1 (racemic)", "pKi": 6.14}
{"Compound": "OC(c1ccc(F)cc1)C1CCN(CCCCc2ccccc2)CC1 (stereo not given)", "pKi": 6.90}
{"Compound": "COc1ccccc1N1CCN(CCCCN2C(=O)C[C@H](NC(=O)CC3CC4CCC3C4)C2=O)CC1 (stereo not given in full)", "pKi": 7.33}

[P] O=C(NCCCN1CCN(c2cccc3ccccc23)CC1)c1ccccn1
[Q] c1ccc(CCCN2CCN(c3ccccn3)CC2)cc1
# argmax over pKi for candidates P and Q Refer to your chosen entry by its label in the reply.
P

[I] COc1ccccc1N1CCN(CCCCNC(=O)[C@@H]2CCCN2C(=O)C2CCCCC2)CC1
[II] O=c1ccc(OCCCN2CCC(c3noc4cc(F)ccc34)CC2)nn1-c1cc(Cl)ccc1Cl
[III] Cl.O=S(=O)(NCCCCN1CCN(c2cccc(Cl)c2)CC1)c1cnc2ccc(Cl)cc2c1
[IV] O=c1cc(-c2ccccc2)c2ccc(OCCCCN3CCC(c4noc5cc(F)ccc45)CC3)cc2o1
[V] CC1(C)c2ccccc2C(CN)c2ccccc21
Put the compounds in ascending order of pKi. Quick reminder: the answer is the labels in the order asked.
I, V, III, IV, II
(I: 6.00, V: 6.48, III: 7.25, IV: 8.04, II: 9.15)

[I] O=c1c2ccccc2nnn1OCCCN1CCN(c2cccc3ccccc23)CC1
[II] Cc1cccc(N2CCN(CCCCOc3ccc4c(C)cc(=O)oc4c3)CC2)c1C
[III] O=c1ccc(OCCCN2CCC(c3noc4cc(F)ccc34)CC2)nn1-c1cccc(Cl)c1
# desc sort on pKi across 3 compounds Would you mind listing the labels in the order requested?
III, II, I
(III: 8.22, II: 6.59, I: 6.14)

[A] O=C(NC1CCN(Cc2ccccn2)CC1)c1ccc2ccccc2c1
[B] COc1ccccc1N1CCN(CCCCn2c(=O)ccn3c4c(=O)n(C)c(=O)n(C)c4nc23)CC1
Quick check, higher pKi between A and B ? Selection: enter the item's label.
A
